The measurements presented in this section are drawn from patent US20240116985A1.

assay: CHI Log D procedure; type: physicochemical; conditions: pH 7.4
parameter: CHI Log D
Answer field: number only, no words.

In: // CHI Log D lookup, key: CC(=O)N1CCC[C@]12CC=CCCCC1(CCCC=CCCCCCC[C@@](C)(C(=O)N[C@@H](Cc3ccccc3)C(=O)N[C@@H](Cc3csc4ccccc34)C(=O)N[C@@H](CCC(N)=O)C(N)=O)NC(=O)[C@H](CCC(N)=O)NC(=O)[C@H](Cc3ccccc3)NC(=O)[C@H](C)NC(=O)[C@H](C)NC(=O)[C@H](CCC(=O)O)NC(=O)[C@H](CC(=O)O)NC1=O)NC(=O)[C@H](C)NC(=O)[C@H](Cc1nn[nH]n1)NC2=O (stereo partly drawn) [I-416]
Out: 2.058

In: Please give the measured CHI Log D for this compound: CC(=O)N1CCC[C@]12CC=CCCCC1(CCCC=CCCCCCC[C@@](C)(C(=O)N[C@@H](Cc3ccccc3)C(=O)N[C@@H](Cc3csc4ccccc34)C(=O)N[C@@H](CCC(N)=O)C(N)=O)NC(=O)[C@H](C)NC(=O)[C@H](Cc3ccccc3C)NC(=O)[C@H](C)NC(=O)[C@H](C)NC(=O)[C@H](CC(=O)O)NC(=O)[C@H](CC(=O)O)NC1=O)NC(=O)[C@H](C)NC(=O)[C@H](CC(=O)O)NC2=O (stereo partly drawn) [I-365]
Out: 2.038

In: # lookup: CHI Log D of CC(=O)N1CCC[C@]12CC=CCCCC1(CCCC=CCCCCCC[C@@](C)(C(=O)N[C@@H](Cc3ccccc3)C(=O)N[C@@H](Cc3csc4ccccc34)C(=O)N[C@@H](CCC(N)=O)C(=O)N[C@@H](C)C(N)=O)NC(=O)[C@H](CC(N)=O)NC(=O)[C@H](Cc3ccccc3)NC(=O)[C@H](C)NC(=O)[C@H](C)NC(=O)[C@H](CCC(=O)O)NC(=O)[C@H](CC(=O)O)NC1=O)NC(=O)[C@H](CC(C)C)NC(=O)[C@H](CC(=O)O)NC2=O (stereo partly drawn) [I-729]
Out: 2.366
